- measured-on: T1, CXCR4 (Homo sapiens, UniProt P61073)
- T1 construct: a Ca^2+-flux assay on CXCR4-expressing THP-1 cells; host or cells: THP-1
- experimental-details: Ca2+-flux assay of CXCR4 activation in THP-1 cells
- Type: cell-based
- stated-conditions: Ca2+-flux, CXCR4-expressing THP-1 cells
- Text: The Protein Data Bank (PDB), under accession numbers 2K01, 2K04, 2K03 and 2K05 contain coordinates for these structural models. Restraints employed for structure determination have been deposited in the Biological Magnetic Resonance Bank, accession numbers 15633, 15636, 15635 and 15637. […] THP-1 cells are a CXCR4-expressing monocyte leukemia cell line and were obtained from ATCC. The inventors monitored activation of CXCR4 using THP-1 cells and a similar Ca^2+-flux assay.
assay-metric: pEC50
When answering, recall that pEC50 equals minus log10 of the concentration in mol/L, and write that number alone.

Would you mind telling me what pEC50 value was observed for V49A: CXCL12-α mutant V49A (protein) KPVSLSYRCPCRFFESHVARANVKHLKILNTPNCACQIVARLKNNNRQACIDPKLKWIQEYLEKCLNK ? 8.07

What do you have for E60A: CXCL12-α mutant E60A (protein) KPVSLSYRCPCRFFESHVARANVKHLKILNTPNCACQIVARLKNNNRQVCIDPKLKWIQAYLEKCLNK ? 8.39

What do you have for H25R: dimerization-impaired, preferentially monomeric CXCL12-α variant (protein, ends and bridges not checked, dimerization-impaired, preferentially monomeric CXCL12-α variant) KPVSLSYRCPCRFFESHVARANVKRLKILNTPNCACQIVARLKNNNRQVCIDPKLKWIQEYLEKCLNK ? 8.29

What do you have for R47A: CXCL12-α mutant R47A (protein) KPVSLSYRCPCRFFESHVARANVKHLKILNTPNCACQIVARLKNNNAQVCIDPKLKWIQEYLEKCLNK ? 7.85

What do you have for E63A: CXCL12-α mutant E63A (protein) KPVSLSYRCPCRFFESHVARANVKHLKILNTPNCACQIVARLKNNNRQVCIDPKLKWIQEYLAKCLNK ? 8.43

What do you have for K27E: CXCL12-α mutant, glutamic acid at K27 (protein) KPVSLSYRCPCRFFESHVARANVKHLEILNTPNCACQIVARLKNNNRQVCIDPKLKWIQEYLEKCLNK ? 7.77

What do you have for K27A: CXCL12-α mutant, alanine at K27 (protein) KPVSLSYRCPCRFFESHVARANVKHLAILNTPNCACQIVARLKNNNRQVCIDPKLKWIQEYLEKCLNK ? 8.00

What do you have for R47E: CXCL12-α mutant, arginine 47 replaced by glutamic acid (protein) KPVSLSYRCPCRFFESHVARANVKHLKILNTPNCACQIVARLKNNNEQVCIDPKLKWIQEYLEKCLNK ? 6.18

What do you have for K64A: CXCL12-α mutant K64A (protein) KPVSLSYRCPCRFFESHVARANVKHLKILNTPNCACQIVARLKNNNRQVCIDPKLKWIQEYLEACLNK ? 8.30

What do you have for V39A: CXCL12-α mutant V39A (protein) KPVSLSYRCPCRFFESHVARANVKHLKILNTPNCACQIAARLKNNNRQVCIDPKLKWIQEYLEKCLNK ? 7.57

What do you have for R20A: wild-type CXCL12-α with R20 replaced by alanine (protein) KPVSLSYRCPCRFFESHVAAANVKHLKILNTPNCACQIVARLKNNNRQVCIDPKLKWIQEYLEKCLNK ? 8.37

What do you have for R41A: CXCL12-α mutant R41A (protein) KPVSLSYRCPCRFFESHVARANVKHLKILNTPNCACQIVAALKNNNRQVCIDPKLKWIQEYLEKCLNK ? 8.37
